The values you see were collected from patent US20100311729A1.

For each record, write down the corresponding IC50.
# target: PI3K alfa (Homo sapiens, UniProt P42336)
# Construct: for the p110-a subunit (with a deletion of the first 20 amino acids); His tag (C); made in house; host or cells: baculovirus; Tn5 (Trichoplusia ni) or TiniPro insect cells
# Sequence (P42336 with tags, fused parts or gaps limits assumed): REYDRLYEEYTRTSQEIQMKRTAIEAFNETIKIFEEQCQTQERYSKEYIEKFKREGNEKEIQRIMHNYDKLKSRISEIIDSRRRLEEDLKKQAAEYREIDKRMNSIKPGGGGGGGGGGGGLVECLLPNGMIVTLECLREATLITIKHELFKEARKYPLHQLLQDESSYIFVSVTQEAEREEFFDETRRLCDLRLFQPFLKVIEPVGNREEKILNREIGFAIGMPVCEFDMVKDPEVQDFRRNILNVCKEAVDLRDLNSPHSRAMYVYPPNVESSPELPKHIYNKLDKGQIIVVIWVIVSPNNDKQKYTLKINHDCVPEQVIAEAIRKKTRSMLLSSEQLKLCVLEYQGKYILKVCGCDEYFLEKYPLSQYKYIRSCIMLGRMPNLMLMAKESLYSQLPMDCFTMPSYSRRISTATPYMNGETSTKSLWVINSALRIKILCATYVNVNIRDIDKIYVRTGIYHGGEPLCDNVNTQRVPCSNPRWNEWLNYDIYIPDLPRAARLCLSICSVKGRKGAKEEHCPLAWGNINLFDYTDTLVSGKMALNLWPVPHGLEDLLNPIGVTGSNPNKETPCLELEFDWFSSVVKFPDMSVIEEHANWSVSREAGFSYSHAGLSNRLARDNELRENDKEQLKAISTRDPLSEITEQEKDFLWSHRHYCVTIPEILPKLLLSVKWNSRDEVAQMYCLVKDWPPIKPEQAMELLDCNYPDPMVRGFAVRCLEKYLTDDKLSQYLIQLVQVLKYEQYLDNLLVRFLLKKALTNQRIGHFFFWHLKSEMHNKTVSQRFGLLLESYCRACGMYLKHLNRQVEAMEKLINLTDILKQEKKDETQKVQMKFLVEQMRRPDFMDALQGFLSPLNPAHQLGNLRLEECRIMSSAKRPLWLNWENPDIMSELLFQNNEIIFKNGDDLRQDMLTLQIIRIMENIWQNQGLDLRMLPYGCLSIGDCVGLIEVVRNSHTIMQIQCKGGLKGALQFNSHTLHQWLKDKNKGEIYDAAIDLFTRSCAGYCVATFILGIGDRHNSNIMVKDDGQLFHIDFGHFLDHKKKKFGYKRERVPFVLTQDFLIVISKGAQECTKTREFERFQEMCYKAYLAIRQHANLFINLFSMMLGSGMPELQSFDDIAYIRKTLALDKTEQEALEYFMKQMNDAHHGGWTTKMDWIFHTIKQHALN
# assay_summary: PI3 kinase assay (Kinase-Glo luminescence), PI3K alfa
# Format: biochemical
# stated_conditions: Enzymatic Data; read-out: PI3K alfa IC50 [umol]

INSERT INTO assay_data (compound, parameter, measurement) VALUES
  ('O=C(NCCCOc1ccc(-c2ccc3ncc(-c4cncc(C(F)(F)F)c4)n3n2)cc1)C1CC1 [Example 130]', 'IC50', '347 nM'),
  ('COc1ccc(-c2cnc3ccc(-c4cnc5[nH]ccc5c4)nn23)cc1OC [Example 42]', 'IC50', '635 nM'),
  ('NCCCOc1ccc(-c2ccc3ncc(-c4cnc(N)c(C(F)(F)F)c4)n3n2)cc1OC(F)(F)F [Example 63]', 'IC50', '153 nM'),
  ('O=C1CCCN1CCCOc1ccc(-c2ccc3ncc(-c4cnc5[nH]ccc5c4)n3n2)cc1F [Example 91]', 'IC50', '155 nM');

From here, focus on the item given below.
Lab note: measured IC50 of CC(=O)NCCn1cc(-c2ccc3ncc(-c4cnc(N)c(C(F)(F)F)c4)n3n2)ccc1=O [Example 76] was 158 nM

###

# target: PI3K delta (Homo sapiens)
# Construct: for the full-length p110-d subunit are generated and fused by overlapping PCR; His tag (C); Tn5 (Trichoplusia ni) or TiniPro insect cells
# Sequence (O00329 with tags, fused parts or gaps limits assumed): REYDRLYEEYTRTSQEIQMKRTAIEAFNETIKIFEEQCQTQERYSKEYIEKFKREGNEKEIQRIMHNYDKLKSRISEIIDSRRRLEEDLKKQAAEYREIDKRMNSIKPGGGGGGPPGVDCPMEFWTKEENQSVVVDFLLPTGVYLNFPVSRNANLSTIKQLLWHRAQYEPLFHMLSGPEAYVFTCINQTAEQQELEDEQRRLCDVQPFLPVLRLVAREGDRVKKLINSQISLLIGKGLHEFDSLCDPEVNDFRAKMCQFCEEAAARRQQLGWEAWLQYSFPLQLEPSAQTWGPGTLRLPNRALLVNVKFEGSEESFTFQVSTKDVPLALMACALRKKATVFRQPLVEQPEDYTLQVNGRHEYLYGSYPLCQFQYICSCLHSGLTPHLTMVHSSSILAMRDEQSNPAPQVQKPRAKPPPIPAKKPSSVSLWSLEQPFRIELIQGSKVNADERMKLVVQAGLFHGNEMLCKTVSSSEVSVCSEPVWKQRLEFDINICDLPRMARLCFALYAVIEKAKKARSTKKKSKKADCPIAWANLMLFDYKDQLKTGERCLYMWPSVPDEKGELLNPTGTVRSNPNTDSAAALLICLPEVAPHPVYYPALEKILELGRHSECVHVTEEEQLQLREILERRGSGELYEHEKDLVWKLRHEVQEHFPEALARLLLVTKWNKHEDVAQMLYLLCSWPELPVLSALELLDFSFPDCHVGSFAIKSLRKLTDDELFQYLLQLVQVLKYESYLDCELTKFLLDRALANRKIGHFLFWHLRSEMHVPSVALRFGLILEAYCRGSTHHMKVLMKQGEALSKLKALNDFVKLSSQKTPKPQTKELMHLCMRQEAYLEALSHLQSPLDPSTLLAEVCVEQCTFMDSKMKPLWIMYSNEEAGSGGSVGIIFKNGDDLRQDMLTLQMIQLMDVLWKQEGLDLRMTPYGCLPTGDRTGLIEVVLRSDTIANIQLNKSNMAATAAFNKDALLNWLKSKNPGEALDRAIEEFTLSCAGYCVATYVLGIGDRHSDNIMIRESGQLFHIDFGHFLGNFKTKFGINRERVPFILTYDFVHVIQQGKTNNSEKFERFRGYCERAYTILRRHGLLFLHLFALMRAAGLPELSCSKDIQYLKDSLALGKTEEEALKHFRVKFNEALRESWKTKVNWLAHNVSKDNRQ
# assay_summary: PI3 kinase assay (Kinase-Glo luminescence), PI3K delta
# stated_conditions: Enzymatic Data; read-out: PI3K delta IC50 [umol]
Assignment: determine reported pIC50 for the given compounds.
One number for each entry, as −log10 of the molar value.

Solved entries:
INSERT INTO results (item_smiles, measurement) VALUES
  ('COc1cc(-c2cnc3ccc(-c4cnc(N)c(C(F)(F)F)c4)nn23)ccc1C(=O)N1CCN(c2ccccn2)CC1', 7.60),
  ('O=C1CCCN1CCOc1ccc(-c2ccc3ncc(-c4cnc5[nH]ccc5c4)n3n2)cc1F', 5.96),
  ('Nc1ncc(-c2ccc3ncc(-c4ccc(C(=O)N5CCN(CC(=O)N6CCOCC6)CC5)cc4)n3n2)cc1C(F)(F)F', 6.58),
  ('Nc1ncc(-c2ccc3ncc(-c4ccc(C(=O)N5CCN(Cc6ccncc6)CC5)cc4)n3n2)cc1C(F)(F)F', 7.28),
  ('CC(C)S(=O)(=O)c1ccc(-c2cnc3ccc(-c4cnc(N)c(C(F)(F)F)c4)nn23)cc1', 7.25),
  ('NCCOc1ccc(-c2ccc3ncc(-c4cnc(N)c(C(F)(F)F)c4)n3n2)cc1', 6.79),
  ('COc1cc(-c2ccc3ncc(-c4cnc(N)c(C(F)(F)F)c4)n3n2)ccc1OCCNC(C)=O', 6.86),
  ('Nc1ncc(-c2cnc3ccc(-c4ccc(OCCCNC(=O)C5CC5)cc4)nn23)cc1C(F)(F)F', 5.67);

Batch request: pIC50 for each of the following compounds.
1. Nc1ncc(-c2ccc3ncc(-c4ccc(C(=O)NCCCN5CCOCC5)cc4F)n3n2)cc1C(F)(F)F
2. COc1ccc(-c2ccc3ncc(-c4cnc(N)c(C(F)(F)F)c4)n3n2)cc1F
3. COc1ccc(-c2ccc3ncc(-c4cnc5[nH]ccc5c4)n3n2)cc1F
4. Nc1ncc(-c2ccc3ncc(-c4ccc(OCCCc5ccncc5)cc4)n3n2)cc1C(F)(F)F
5. NCCCOc1ccc(-c2ccc3ncc(-c4cnc(N)c(C(F)(F)F)c4)n3n2)cn1
6. COc1cc(-c2cnc3ccc(-c4cnc(N)c(C(F)(F)F)c4)nn23)ccc1C(=O)NCCN1CCOCC1

Result:
1. 7.89
2. 5.61
3. 5.32
4. 6.65
5. 7.39
6. 7.66
